Quick reference: EC50 of the listed items.
- System: RKO p27 or p21 induced (arrested) colon adenocarcinoma cells
- Assay: Alamar Blue cell viability assay, RKO p27 or p21 induced (arrested)
- Format: cell-based
- Reported conditions: Homo sapiens, RKOp27, Table B2, cells arrested by Ponasterone A, 72 hours, read-out: −log EC50 RKO p27 or p21 induced (arrested) (converted)

// below: answered compounds
- Compound: "COc1ccc2[nH]c3c(c2c1)C[C@@]1(C)C(=O)N(CCCNCCO)C(=O)N1[C@@H]3c1cccc(O)c1 (racemic)"
  System: "RKO p27 or p21 induced (arrested) colon adenocarcinoma cells"
  Readout value: "≥ 0.316 µM"
- Compound: "COc1ccc2[nH]c3c(c2c1)C[C@@]1(C)C(=O)N(CCCNC2CC2)C(=O)N1[C@@H]3c1cccc(O)c1 (racemic)"
  System: "RKO p27 or p21 induced (arrested) colon adenocarcinoma cells"
  Readout value: "≥ 3.16 µM"
- Compound: "CNCCCN1C(=O)N2[C@H](c3cccc(O)c3)c3[nH]c4ccc(OC)cc4c3C[C@@]2(C)C1=O (racemic)"
  System: "RKO p27 or p21 induced (arrested) colon adenocarcinoma cells"
  Readout value: "≥ 3.16 µM"
- Compound: "CCN(CC)CCN1C(=O)N2[C@H](c3cccc(O)c3)c3[nH]c4ccc(OC)cc4c3C[C@@]2(C)C1=O (racemic)"
  System: "RKO p27 or p21 induced (arrested) colon adenocarcinoma cells"
  Readout value: "≥ 3.16 µM"

Enquiry: Identify EC50 associated with the compound C=CCN(C)CCCN1C(=O)N2[C@H](c3cccc(O)c3)c3[nH]c4ccc(OC)cc4c3C[C@@]2(C)C1=O (racemic)
Return: ≥ 3.16 µM

Enquiry: Identify EC50 associated with the compound CCN(CCO)CCN1C(=O)N2[C@H](c3cccc(O)c3)c3[nH]c4ccc(OC)cc4c3C[C@@]2(C)C1=O (racemic)
Return: ≥ 3.16 µM

* * *

- Tested on: RKO p27 uninduced (proliferating) colon adenocarcinoma cells
- Assay: Alamar Blue cell viability assay, RKO p27 uninduced (proliferating)
- Type: cell-based
- Reported conditions: Homo sapiens, RKOp27, Table B1, anti-proliferative/cytotoxic activity, 72 hours, read-out: −log EC50 RKO p27 uninduced (proliferating) (converted)
Quick reference: EC50 of the listed items.

- Compound: "CCNCCCN1C(=O)N2[C@H](c3cccc(O)c3)c3[nH]c4ccc(OC)cc4c3C[C@@]2(C)C1=O (racemic)"
  EC50: "≤ 39.8 nM"

Enquiry: Identify EC50 associated with the compound COc1ccc2[nH]c3c(c2c1)C[C@@]1(C)C(=O)N(CCCCN(C)C)C(=O)N1[C@@H]3c1cccc(O)c1 (racemic)
Return: ≤ 39.8 nM

Enquiry: Identify EC50 associated with the compound CC[C@@]12Cc3c([nH]c4ccc(OC)cc34)[C@@H](c3cccc(O)c3)N1C(=O)N(CCCN(C)C)C2=O (racemic)
Return: ≤ 39.8 nM

Enquiry: Identify EC50 associated with the compound CNCCN1C(=O)N2[C@H](c3cccc(O)c3)c3[nH]c4ccc(OC(F)F)cc4c3C[C@@]2(C)C1=O (racemic)
Return: ≤ 39.8 nM

Enquiry: Identify EC50 associated with the compound CCNCCN1C(=O)N2[C@H](c3cccc(O)c3)c3[nH]c4ccc(OC)cc4c3C[C@@]2(C)C1=O (racemic)
Return: ≤ 39.8 nM

Enquiry: Identify EC50 associated with the compound C[C@@]12Cc3c([nH]c4ccc(Cl)cc34)[C@@H](c3cccc(O)c3)N1C(=O)N(CCn1ccnc1)C2=O (racemic)
Return: 39.8 to 251 nM

* * *

Quick reference: EC50 of the listed items.
- Test system: RKO p27 or p21 induced (arrested) colon adenocarcinoma cells
- Assay: Alamar Blue cell viability assay, RKO p27 or p21 induced (arrested)
- Format: cell-based
- Reported conditions: Homo sapiens, RKOp27, Table B2, cells arrested by Ponasterone A, 72 hours, read-out: −log EC50 RKO p27 or p21 induced (arrested) (converted)

// below: answered compounds
- Compound: "C[C@@]12Cc3c([nH]c4ccc(Cl)cc34)[C@@H](c3cccc(O)c3)N1C(=O)N(CCN1CCCCCC1)C2=O (racemic) [Example 104]"
  Quantity: "EC50"
  Readout value: "≥ 3160 nM"
- Compound: "C#CCNCCCN1C(=O)N2[C@H](c3cccc(O)c3)c3[nH]c4ccc(OC)cc4c3C[C@@]2(C)C1=O (racemic) [Example 147]"
  Quantity: "EC50"
  Readout value: "≥ 316 nM"
- Compound: "C=CCN(C)CCN1C(=O)N2[C@H](c3cccc(O)c3)c3[nH]c4ccc(OC)cc4c3C[C@@]2(C)C1=O (racemic) [Example 80]"
  Quantity: "EC50"
  Readout value: "≥ 3160 nM"
- Compound: "C#CC(C)NCCCN1C(=O)N2[C@H](c3cccc(O)c3)c3[nH]c4ccc(Cl)cc4c3C[C@@]2(C)C1=O (mixture of isomers) [Example 136]"
  Quantity: "EC50"
  Readout value: "≥ 3160 nM"
- Compound: "C[C@@]12Cc3c([nH]c4ccc(Cl)cc34)[C@@H](c3cccc(O)c3)N1C(=O)N(CCN1CC=CCC1)C2=O (racemic) [Example 100]"
  Quantity: "EC50"
  Readout value: "≥ 3160 nM"
- Compound: "CN(CCO)CCCN1C(=O)N2[C@H](c3cccc(O)c3)c3[nH]c4ccc(Cl)cc4c3C[C@@]2(C)C1=O (racemic) [Example 132]"
  Quantity: "EC50"
  Readout value: "≥ 316 nM"
- Compound: "C#CCN(C)CCN1C(=O)N2[C@H](c3cccc(O)c3)c3[nH]c4ccc(Cl)cc4c3C[C@@]2(C)C1=O (racemic) [Example 116]"
  Quantity: "EC50"
  Readout value: "≥ 316 nM"
- Compound: "C#CCN(C)CCCN1C(=O)N2[C@H](c3cccc(O)c3)c3[nH]c4ccc(OC)cc4c3C[C@@]2(C)C1=O (racemic) [Example 144]"
  Quantity: "EC50"
  Readout value: "≥ 316 nM"

Enquiry: Identify EC50 associated with the compound COc1ccc2[nH]c3c(c2c1)C[C@@]1(C)C(=O)N(CCNC(C)(C)C)C(=O)N1[C@@H]3c1cccc(O)c1 (racemic) [Example 72]
Return: ≥ 3160 nM

Enquiry: Identify EC50 associated with the compound COCCNCCN1C(=O)N2[C@H](c3cccc(O)c3)c3[nH]c4ccc(Cl)cc4c3C[C@@]2(C)C1=O (racemic) [Example 128]
Return: ≥ 316 nM

Enquiry: Identify EC50 associated with the compound C=CCN(C)CCN1C(=O)N2[C@H](c3cccc(O)c3)c3[nH]c4ccc(Cl)cc4c3C[C@@]2(C)C1=O (racemic) [Example 117]
Return: ≥ 316 nM

Enquiry: Identify EC50 associated with the compound Cn1ccc(NCCN2C(=O)N3[C@H](c4cccc(O)c4)c4[nH]c5ccc(Cl)cc5c4C[C@@]3(C)C2=O)n1 (racemic) [Example 125]
Return: ≥ 316 nM

Enquiry: Identify EC50 associated with the compound CC1CCN(CCN2C(=O)N3[C@H](c4cccc(O)c4)c4[nH]c5ccc(Cl)cc5c4C[C@@]3(C)C2=O)CC1 (racemic) [Example 98]
Return: ≥ 3160 nM

* * *

Quantity: melting point

- Compound: "COc1ccc2[nH]c3c(c2c1)C[C@@]1(C)C(=O)N(CCN2CCCC2)C(=O)N1[C@@H]3c1cccc(O)c1 (racemic)"
  Quantity: "melting point"
  Readout value: "252 to 255 °C"

Enquiry: Identify melting point associated with the compound COc1ccc2[nH]c3c(c2c1)C[C@@]1(C)C(=O)N(CCn2ccnc2)C(=O)N1[C@@H]3c1cccc(O)c1 (racemic)
Return: 321 to 324 °C

Enquiry: Identify melting point associated with the compound CN(C)CCN1C(=O)N2[C@H](c3cccc(O)c3)c3[nH]c4ccc(Br)cc4c3C[C@@]2(C)C1=O (racemic)
Return: 286 to 288 °C

Enquiry: Identify melting point associated with the compound COc1ccc2[nH]c3c(c2c1)C[C@@]1(C)C(=O)N(CCN2CCN(C)CC2)C(=O)N1[C@@H]3c1cccc(O)c1 (racemic)
Return: 224 to 227 °C

Enquiry: Identify melting point associated with the compound C[C@@]12Cc3c([nH]c4ccc(Cl)cc34)[C@@H](c3cccc(O)c3)N1C(=O)N(CCBr)C2=O (racemic)
Return: 262 to 264 °C

Enquiry: Identify melting point associated with the compound CN(C)CCN1C(=O)N2[C@H](c3cccc(O)c3)c3[nH]c4ccc(Cl)cc4c3C[C@@]2(C)C1=O (racemic)
Return: 283 to 286 °C

* * *

- Tested on: RKO p27 or p21 induced (arrested) colon adenocarcinoma cells
- Assay: Alamar Blue cell viability assay, RKO p27 or p21 induced (arrested)
- Format: cell-based
- Reported conditions: Homo sapiens, RKOp27, Table B2, cells arrested by Ponasterone A, 72 hours, read-out: −log EC50 RKO p27 or p21 induced (arrested) (converted)
Quantity: EC50

// below: answered compounds
- Compound: "C[C@@]12Cc3c([nH]c4ccc(Cl)cc34)[C@@H](c3cccc(O)c3)N1C(=O)N(CCNCC(F)F)C2=O (racemic)"
  System: "RKO p27 or p21 induced (arrested) colon adenocarcinoma cells"
  EC50: "≥ 0.316 µM"
- Compound: "C=CCNCCCN1C(=O)N2[C@H](c3cccc(O)c3)c3[nH]c4ccc(OC)cc4c3C[C@@]2(C)C1=O (racemic)"
  System: "RKO p27 or p21 induced (arrested) colon adenocarcinoma cells"
  EC50: "≥ 0.316 µM"

Enquiry: Identify EC50 associated with the compound C[C@@]12Cc3c([nH]c4ccc(Cl)cc34)[C@@H](c3cccc(O)c3)N1C(=O)N(CCN1CCCCC1)C2=O (racemic)
Return: ≥ 3.16 µM
